These measurements were taken from ChEMBL document CHEMBL1136862.

- Measurement target: Serine/threonine-protein kinase Chk1 (Homo sapiens)
- Assay text: Inhibition of C-terminal 6-His tagged human Chk1 by HTRF assay in presence of 0.1 mM ATP
Readout: IC50 (µM)

Compound	Readout	Measurement
CCCCC(Sc1nc2ccccc2c(=O)n1-c1ccccc1)C(=O)N1CCC(c2ccccc2)(c2ccccc2)CC1 (centres undefined)	IC50	4.5

a: CC(C)CC(Sc1nc2ccccc2c(=O)n1-c1cccc(Cl)c1)C(=O)N1CCC(C(N)=O)CC1 (centres undefined)
b: CCCCC(Sc1nc2ccccc2c(=O)n1-c1ccccc1)C(=O)N1CCS(=O)(=O)CC1 (centres undefined)
Of a and b , which carries the smaller reported IC50 figure? # answer = label of selected item
a
(a: 2.8 µM, b: 6 µM)

a: CCCCC(Sc1nc2cc(C)ccc2c(=O)n1-c1cccc(Cl)c1)C(=O)N1CCC(C(N)=O)CC1 (centres undefined)
b: CCCCC(Sc1nc2ccccc2c(=O)n1-c1ccccc1Cl)C(=O)N1CCC(C(N)=O)CC1 (centres undefined)
Sort a and b by IC50 descending and give the first. State the label of the item chosen.
b
(b: 41 µM, a: 28 µM)

====

- Measurement target: Serine/threonine-protein kinase Chk1 (Homo sapiens, UniProt O14757)
- Sequence (O14757 whole entry): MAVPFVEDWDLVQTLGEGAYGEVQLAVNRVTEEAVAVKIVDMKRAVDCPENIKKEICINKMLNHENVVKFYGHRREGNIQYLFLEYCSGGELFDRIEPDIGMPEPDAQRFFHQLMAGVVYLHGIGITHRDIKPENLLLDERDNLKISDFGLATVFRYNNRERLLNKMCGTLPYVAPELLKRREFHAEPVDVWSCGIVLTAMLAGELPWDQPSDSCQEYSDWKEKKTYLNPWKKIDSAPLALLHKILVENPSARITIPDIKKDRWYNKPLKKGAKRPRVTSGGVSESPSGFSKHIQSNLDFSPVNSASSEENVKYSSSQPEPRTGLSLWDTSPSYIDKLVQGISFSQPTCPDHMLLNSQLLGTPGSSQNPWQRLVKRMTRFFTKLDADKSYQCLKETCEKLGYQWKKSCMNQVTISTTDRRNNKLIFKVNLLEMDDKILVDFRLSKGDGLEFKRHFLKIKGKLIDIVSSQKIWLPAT
- Assay text: Inhibition of C-terminal 6-His tagged human Chk1 by HTRF assay in presence of 2.0 mM ATP
Readout: pIC50
Just so you know, pIC50 here is -log10 of the concentration in molar units; reply with that number alone.

Request the reported pIC50 associated with CCCCC(Sc1nc2ccccc2c(=O)n1-c1ccccc1)C(=O)N1CCC(C(N)=O)CC1 (stereo unspecified)
4.62

====

- Measurement target: Serine/threonine-protein kinase Chk1 (Homo sapiens, UniProt O14757)
- Sequence (O14757 whole entry): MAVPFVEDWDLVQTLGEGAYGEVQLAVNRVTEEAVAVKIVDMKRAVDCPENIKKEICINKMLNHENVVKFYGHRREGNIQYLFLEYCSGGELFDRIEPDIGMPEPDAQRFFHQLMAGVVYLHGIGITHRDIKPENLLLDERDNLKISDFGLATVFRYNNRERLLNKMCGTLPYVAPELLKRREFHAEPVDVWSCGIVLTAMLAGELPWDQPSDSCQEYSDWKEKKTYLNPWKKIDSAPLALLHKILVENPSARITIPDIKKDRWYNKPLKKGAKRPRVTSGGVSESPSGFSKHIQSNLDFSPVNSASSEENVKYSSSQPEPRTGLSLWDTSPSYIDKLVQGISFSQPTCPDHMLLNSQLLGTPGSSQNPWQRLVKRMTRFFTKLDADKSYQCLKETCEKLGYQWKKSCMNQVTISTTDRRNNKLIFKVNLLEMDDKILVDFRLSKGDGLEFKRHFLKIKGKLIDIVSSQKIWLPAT
- Assay text: Inhibition of C-terminal 6-His tagged human Chk1 by HTRF assay in presence of 0.1 mM ATP
Readout: IC50 (µM)

1: CCCCC(Sc1nc2c(O)cccc2c(=O)n1-c1cccc(Cl)c1)C(=O)N1CCC(C(N)=O)CC1 (centres undefined)
2: CCCCC(Sc1nc2ccccc2c(=O)n1-c1ccccc1)C(=O)N1CCCC2(CCCNC2)C1 (centres undefined)
Name the one with the greater IC50 value, either 1 or 2 as given. Respond with the label that goes with your answer.
1
